Entries annotated with measured Reactivity (OD492)
- target_under_test: biotinylated HCV core peptide 134-154 (Peptide 1) (HCV-1)
- protocol: EIA, captured mAb
# number then unit; no other words

| binder | Reactivity (OD492) |
| --- | --- |
| HCV 208A-422 (antibody, V domains shown) VH: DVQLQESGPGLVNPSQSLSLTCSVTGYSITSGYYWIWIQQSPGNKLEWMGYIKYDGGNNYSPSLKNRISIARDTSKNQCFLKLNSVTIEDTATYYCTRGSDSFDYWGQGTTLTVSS VL: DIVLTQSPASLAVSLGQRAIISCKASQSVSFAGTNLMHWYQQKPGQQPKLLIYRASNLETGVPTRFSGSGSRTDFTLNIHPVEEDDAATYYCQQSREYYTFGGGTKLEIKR | 0.05 OD |
| HCV 208A-126 (antibody, V domains shown) VH: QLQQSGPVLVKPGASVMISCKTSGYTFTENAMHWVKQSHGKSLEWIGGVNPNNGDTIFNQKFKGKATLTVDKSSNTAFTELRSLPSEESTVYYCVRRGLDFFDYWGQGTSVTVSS VL: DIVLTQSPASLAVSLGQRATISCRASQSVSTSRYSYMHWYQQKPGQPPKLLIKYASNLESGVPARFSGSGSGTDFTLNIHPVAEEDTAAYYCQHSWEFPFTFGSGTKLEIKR | 0.2 OD |

Task: What value of Reactivity (OD492) has been recorded for this entry: HCV 208B-1094 (antibody, V domains shown) VH: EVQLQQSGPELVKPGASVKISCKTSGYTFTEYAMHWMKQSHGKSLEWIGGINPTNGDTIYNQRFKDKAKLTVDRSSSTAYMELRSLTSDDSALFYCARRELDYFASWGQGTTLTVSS VL: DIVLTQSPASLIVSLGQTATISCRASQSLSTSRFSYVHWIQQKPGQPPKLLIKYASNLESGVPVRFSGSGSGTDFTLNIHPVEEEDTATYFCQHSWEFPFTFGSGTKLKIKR
Output: 0.12 OD
